I'd appreciate it if you could supply melting point values for the items below.

The value of melting point measured for the compound `COC(=O)CCCC(=O)c1cc2c(c(S(N)(=O)=O)c1)OCC2` turned out to be 135 to 136 °C

The value of melting point measured for the compound `CNS(=O)(=O)c1cscc1CO` turned out to be 118 to 119 °C

The value of melting point measured for the compound `Cc1cc(Cl)ccc1OCC(=O)N1Cc2ccc(C(=O)CCc3ccccc3)n2Cc2ccccc21` turned out to be 130 to 134 °C

The value of melting point measured for the compound `NC(=O)c1c(CN2CCC(c3ccccc3)(c3ccccc3)CC2)ncn1Cc1ccc(Cl)cc1` turned out to be 227 to 228 °C

The value of melting point measured for the compound `Cc1c(C#N)c(N)n(-c2ccc([N+](=O)[O-])cc2)c1C` turned out to be 310 °C
